- Tested on: CLso
- Assay type: in vivo, Candidatus Liberibacter solanacearum
- experimentalContext: 8 week trial, soil application (FIG. 11B)
readoutKind: foliar disease symptoms (foliar symptom ranking)

Guide cases for foliar disease symptoms (foliar symptom ranking), answers given:
chain="GAAGAACGGGCGAACTTTTTG (chemistry not given here) [L. solanacearum CLso2 -GyrA host Potato]" targetortestsystem=CLso readoutvalue="significantly reduced"
chain="TTGTCCAGCCATATCAATAGC (FANA modification, further chemistry not given here) [CLsoDnaB-5, FANA ASO, CLso DnaB-Helicase C]" targetortestsystem=CLso readoutvalue="significantly reduced"
chain="AATAAACGCAATGACCAATCC (FANA modification, further chemistry not given here) [CLso-1 GyrA-Ext-1, FANA ASO, CLso Gyrase-A]" targetortestsystem=CLso readoutvalue="significantly reduced"
chain="CATTTTGTATATGCGAGGACA (FANA modification, further chemistry not given here) [CLsoDNAB-4, FANA ASO, CLso DnaB-Helicase C]" targetortestsystem=CLso readoutvalue="significantly reduced"
chain="TAGTTCCGATTTGTATGCATC (FANA modification, further chemistry not given here) [CLsoDnaB-6, FANA ASO, CLso DnaB-Helicase C]" targetortestsystem=CLso readoutvalue="significantly reduced"

Items follow; give foliar disease symptoms (foliar symptom ranking) for each.
1. GGGAATATTCGTCGCCATACC (FANA modification, further chemistry not given here) [CLso-4Gyr, FANA ASO, CLso Gyrase A]
2. GATTGAAGGGCAGGGGAATTC (chemistry not given here)
3. ATAACCTTGACGATCTGATTC (FANA modification, further chemistry not given here) [CLso-2 Gyr-Ext-2, FANA ASO, CLso Gyrase-A]

Result:
["significantly reduced", "significantly reduced", "significantly reduced"]

Items follow; give foliar disease symptoms (foliar symptom ranking) for each.
1. TGTATATGCGAGGACATCGTC (FANA modification, further chemistry not given here) [CLso-DnaB-7, FANA ASO, CLso DnaB-Helicase C]
2. CAAATCAGGTATAGCACGGCC (FANA modification, further chemistry not given here) [CLso-2Gyr, FANA ASO, CLso Gyrase A]

Result:
["significantly reduced", "significantly reduced"]

Items follow; give foliar disease symptoms (foliar symptom ranking) for each.
1. GCATCATTATTCACTAGGATAG (FANA modification, further chemistry not given here) [CLsoDNAB-1, FANA ASO, CLso DnaB-Helicase C]
2. TATGGAAACAGCCTCAGATGC (FANA modification, further chemistry not given here) [CLsoDNAB-2, FANA ASO, CLso DnaB-Helicase C]
3. CGATTAAAAGCTTGTCCAGCC (FANA modification, further chemistry not given here) [CLsoDNAB-3, FANA ASO, CLso DnaB-Helicase C]
4. TATTACGATAGATCCTCGACC (FANA modification, further chemistry not given here) [CLso-2Gyr-Ext-3, FANA ASO, CLso Gyrase A]
5. TTCTATCAGGGTAAATCGCTC (FANA modification, further chemistry not given here) [CLso-2 Gyr-Ext-4, FANA ASO, CLso Gyrase-A]

Result:
significantly reduced
significantly reduced
significantly reduced
significantly reduced
significantly reduced
